Sorting guide: entries reporting melting point beneath 200 °C go in the condition met pile, the rest go in the condition not met pile.

// below: answered compounds
1) CCn1nc(C)c2c1C(=O)NCC(c1sccc1Cl)=N2 :: condition not met
2) CCn1nc(C)c2c1C(=O)NCC(c1cccc(Br)c1)=N2 :: condition met
3) CCCn1nc(C(C)CC)c2c1C(=O)NCC(c1ccc(OC)cc1)=N2 (racemic) :: condition met
4) CCCn1nc(C(C)C)c2c1C(=O)NCC(c1ccc(OC)cc1)=N2 :: condition met
5) CCn1nc(C(C)(C)C)c2c1C(=S)NCC(c1ccccc1)=N2 :: condition not met
6) CCn1nc(C)c2c1C(=O)NCC(c1ccc3ccccc3c1)=N2 :: condition met

Okay, next one:
Qu. Could you please tell me whether melting point recorded for `CCn1nc(C)c2c1C(=O)NCC(c1ccccn1)=N2` is less than 200 °C?
Ans. condition met

Source of measurements: patent US6962912B2
